Entries and their inhibition of ligand binding values follow.
molecular target: Estrogen receptor (Homo sapiens); test: ERalpha ligand binders by competition, primary screen, cell-based, Cos7 ERalpha-GFP, flow cytometry (AID 1211); conditions: fluorescent ligand competition, binding inhibition, at 0.1 µM, stronger effect = higher value;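 further: 0% = DMSO vehicle wells and 100% = no E2-Alexa633 signal left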
Give just the number in %; leave the unit off.

CC1CCN(S(=O)(=O)c2ccc(NC(=O)Cc3cccs3)cc2)CC1	56
O=C(c1cccs1)N1N=C(c2ccc(O)cc2)CC1c1ccccc1 (stereo unspecified)	17
O=C(NCc1ccco1)c1cc2cc3ccc(Cl)cc3nc2o1	30

Under Estrogen receptor (Homo sapiens): inhibition of ligand binding value of Cc1cc(C)c(C(=O)COc2cccnc2[N+](=O)[O-])cc1C ? 30

O=C(Nc1ccc2c(c1)nc1n2CCSC1)c1ccco1 ? 42

Cc1csc2nc(CCNS(=O)(=O)c3ccc4c(c3)OCCO4)cn12 ? 77
